Test system: Bacillus subtilis
Procedure details: microbe, parasite or virus in culture
Assay type: functional
Condition description: ATCC 6633, 24 h
Description: Antibacterial activity against Bacillus subtilis ATCC 6633 after 24 hrs by MTT assay
Below is a list of entries, each paired with its recorded log10 of MIC value.
Measurement name: log10 of MIC (log10 of the value in mg/L)

{"columns": ["Cpd smiles", "System name", "Measurement name", "Endpoint value"],
 "data": [
  ["O=C(/C=C/c1ccc(O)c(O)c1)Nc1cccc(Br)c1", "Bacillus subtilis", "log10 of MIC", 1.70],
  ["COc1ccccc1NC(=O)/C=C/c1ccc(O)c(O)c1", "Bacillus subtilis", "log10 of MIC", 1.60],
  ["O=C(/C=C/c1ccc(O)c(O)c1)Nc1ccc(Br)cc1", "Bacillus subtilis", "log10 of MIC", 0.59],
  ["O=C(/C=C/c1ccc(O)c(O)c1)Nc1ccccc1Cl", "Bacillus subtilis", "log10 of MIC", 1.66],
  ["COc1ccc(NC(=O)/C=C/c2ccc(O)c(O)c2)cc1", "Bacillus subtilis", "log10 of MIC", 0.49]
]}

---

System: Pseudomonas fluorescens
Procedure details: microbe, parasite or virus in culture
Assay type: functional
Condition description: ATCC 13525, 24 h
Description: Antibacterial activity against Pseudomonas fluorescens ATCC 13525 after 24 hrs by MTT assay
Measurement name: MIC

{"columns": ["Cpd smiles", "Measurement name", "Endpoint value"],
 "data": [
  ["O=C(/C=C/c1ccc(O)c(O)c1)Nc1ccccc1[N+](=O)[O-]", "MIC", "> 50 µg/mL"],
  ["O=C(O)/C=C/c1ccc(O)cc1", "MIC", "> 50 µg/mL"],
  ["Cc1ccccc1NC(=O)/C=C/c1ccc(O)c(O)c1", "MIC", "42.5 µg/mL"],
  ["O=C(/C=C/c1ccc(O)c(O)c1)Nc1cccc(Cl)c1", "MIC", "> 50 µg/mL"],
  ["COc1ccccc1NC(=O)/C=C/c1ccc(O)c(O)c1", "MIC", "13.2 µg/mL"],
  ["Cc1ccc(NC(=O)/C=C/c2ccc(O)c(O)c2)cc1", "MIC", "42.2 µg/mL"],
  ["O=C(/C=C/c1ccc(O)c(O)c1)Nc1cccc([N+](=O)[O-])c1", "MIC", "> 50 µg/mL"],
  ["O=C(/C=C/c1ccc(O)c(O)c1)Nc1ccccc1Br", "MIC", "42.2 µg/mL"],
  ["O=C(/C=C/c1ccc(O)c(O)c1)Nc1ccccc1Cl", "MIC", "41.2 µg/mL"],
  ["CCNC(=O)/C=C/c1ccc(O)cc1", "MIC", "> 50 µg/mL"],
  ["CN(C(=O)/C=C/c1ccc(O)c(O)c1)c1ccccc1", "MIC", "> 50 µg/mL"],
  ["O=C(/C=C/c1ccc(O)c(O)c1)Nc1cccc(F)c1", "MIC", "> 50 µg/mL"],
  ["O=C(/C=C/c1ccc(O)c(O)c1)Nc1ccccc1F", "MIC", "> 50 µg/mL"],
  ["O=C(/C=C/c1ccc(O)c(O)c1)Nc1cccc(Br)c1", "MIC", "> 50 µg/mL"],
  ["COc1ccc(NC(=O)/C=C/c2ccc(O)c(O)c2)cc1", "MIC", "> 50 µg/mL"],
  ["Cc1cccc(NC(=O)/C=C/c2ccc(O)c(O)c2)c1", "MIC", "38.8 µg/mL"],
  ["O=C(/C=C/c1ccc(O)c(O)c1)Nc1ccc(F)cc1", "MIC", "> 50 µg/mL"],
  ["O=C(/C=C/c1ccc(O)c(O)c1)Nc1ccc(Cl)cc1", "MIC", "50 µg/mL"],
  ["NC[C@H]1O[C@H](O[C@H]2[C@H](O)[C@@H](O[C@H]3O[C@H](CO)[C@@H](O)[C@H](N)[C@H]3O)[C@H](N)C[C@@H]2N)[C@H](O)[C@@H](O)[C@@H]1O", "MIC", "5.08 µg/mL"],
  ["CCN(CC)C(=O)/C=C/c1ccc(O)c(O)c1", "MIC", "> 50 µg/mL"],
  ["O=C(/C=C/c1ccc(O)c(O)c1)N(c1ccccc1)c1ccccc1", "MIC", "> 50 µg/mL"],
  ["CCNC(=O)/C=C/c1ccc(O)c(O)c1", "MIC", "> 50 µg/mL"],
  ["O=C(O)/C=C/c1ccc(O)c(O)c1", "MIC", "> 50 µg/mL"],
  ["COc1cccc(NC(=O)/C=C/c2ccc(O)c(O)c2)c1", "MIC", "> 50 µg/mL"],
  ["O=C(/C=C/c1ccc(O)c(O)c1)Nc1ccc(Br)cc1", "MIC", "50 µg/mL"],
  ["O=C(/C=C/c1ccc(O)c(O)c1)Nc1ccc([N+](=O)[O-])cc1", "MIC", "> 50 µg/mL"],
  ["O=C(/C=C/c1ccc(O)c(O)c1)Nc1ccccc1", "MIC", "> 50 µg/mL"]
]}

---

System: Bacillus subtilis
Procedure details: microbe, parasite or virus in culture
Format: functional
Condition description: ATCC 6633, 24 h
Measurement name: log10 MIC (log10 of the value in µg/mL)

{"columns": ["Cpd smiles", "log10 MIC"],
 "data": [
  ["CC1(C)S[C@@H]2[C@H](NC(=O)Cc3ccccc3)C(=O)N2[C@H]1C(=O)O", -0.11],
  ["O=C(/C=C/c1ccc(O)c(O)c1)Nc1cccc(Cl)c1", 1.70],
  ["O=C(/C=C/c1ccc(O)c(O)c1)Nc1ccc(Cl)cc1", 0.80],
  ["O=C(/C=C/c1ccc(O)c(O)c1)Nc1cccc(F)c1", 1.67],
  ["O=C(/C=C/c1ccc(O)c(O)c1)Nc1ccc([N+](=O)[O-])cc1", 1.19],
  ["O=C(/C=C/c1ccc(O)c(O)c1)Nc1ccccc1", 1.45],
  ["O=C(/C=C/c1ccc(O)c(O)c1)Nc1ccc(F)cc1", 0.90],
  ["NC[C@H]1O[C@H](O[C@H]2[C@H](O)[C@@H](O[C@H]3O[C@H](CO)[C@@H](O)[C@H](N)[C@H]3O)[C@H](N)C[C@@H]2N)[C@H](O)[C@@H](O)[C@@H]1O", -0.41],
  ["COc1cccc(NC(=O)/C=C/c2ccc(O)c(O)c2)c1", 1.70],
  ["Cc1cccc(NC(=O)/C=C/c2ccc(O)c(O)c2)c1", 1.60],
  ["O=C(/C=C/c1ccc(O)c(O)c1)Nc1ccccc1F", 1.70],
  ["Cc1ccc(NC(=O)/C=C/c2ccc(O)c(O)c2)cc1", 0.07],
  ["Cc1ccccc1NC(=O)/C=C/c1ccc(O)c(O)c1", 1.54],
  ["O=C(/C=C/c1ccc(O)c(O)c1)Nc1ccccc1Br", 1.69]
]}

---

Below is a list of entries, each paired with its recorded MIC value.
Test system: Staphylococcus aureus
Procedure details: microbe, parasite or virus in culture
Type: functional
Condition description: ATCC 6538, 24 h
Description: Antibacterial activity against Staphylococcus aureus ATCC 6538 after 24 hrs by MTT assay

{"columns": ["Cpd smiles", "Relation qualifier", "MIC (µg/mL)"],
 "data": [
  ["COc1ccccc1NC(=O)/C=C/c1ccc(O)c(O)c1", "=", 47.4],
  ["NC[C@H]1O[C@H](O[C@H]2[C@H](O)[C@@H](O[C@H]3O[C@H](CO)[C@@H](O)[C@H](N)[C@H]3O)[C@H](N)C[C@@H]2N)[C@H](O)[C@@H](O)[C@@H]1O", "=", 1.28],
  ["O=C(/C=C/c1ccc(O)c(O)c1)Nc1cccc([N+](=O)[O-])c1", ">", 50],
  ["CCNC(=O)/C=C/c1ccc(O)cc1", "=", 45.4],
  ["O=C(/C=C/c1ccc(O)c(O)c1)N(c1ccccc1)c1ccccc1", ">", 50]
]}
